# Tested on: Target C
# test-description: RT-qPCR splicing assay panel, Target C canonical junction (CJ) mRNA
# Type: cell-based, human
# particulars: Homo sapiens; canonical junction qPCR panel, Table 5; read-out: Target C (decrease in CJ mRNA levels, IC50)
measure: IC50

INSERT INTO results (molecule, measure, recorded_value) VALUES
  ('Cc1c(O)c(-c2ncc3c(=O)n([C@@H]4CCN[C@H](C)C4)ccc3n2)cc2cn(C)nc12', 'IC50', '1 to 10 µM'),
  ('Cc1c(O)c(-c2ncc3c(=O)n([C@H]4CC[C@@H](N(C)C)CC4)ccc3n2)cc2cn(C)nc12', 'IC50', '1 to 10 µM'),
  ('Cc1cn2nc(-c3ccc4c(=O)n([C@H]5CCNC6(CC6)C5)ncc4n3)cc2c(C)n1', 'IC50', '1 to 10 µM'),
  ('Cc1c(O)c(-c2ccc3c(=O)n(C4CC(C)NC(C)C4)ccc3n2)cc2cn(C)nc12 (stereo not drawn)', 'IC50', '1 to 10 µM'),
  ('Cc1c(O)c(-c2ncc3c(=O)n(C45CCC(N)(CC4)C5)ccc3n2)cc2cn(C)nc12', 'IC50', '1 to 10 µM'),
  ('Cn1cc2cc(-c3ncc4c(=O)n([C@H]5CCNC5)ccc4n3)c(O)c(F)c2n1', 'IC50', '0.1 to 1 µM'),
  ('CCN1CC[C@H](n2ncc3nc(-c4cc(C)c5nc(C)cn5n4)ccc3c2=O)CC12CC2', 'IC50', '0.1 to 1 µM'),
  ('CNC12CCC(n3ccc4nc(-c5cc6cn(C)nc6c(C)c5O)ncc4c3=O)(CC1)C2', 'IC50', '1 to 10 µM'),
  ('Cc1c(O)c(-c2ncc3c(=O)n([C@@H]4C[C@H]5CC[C@@H](C4)N5)ccc3n2)cc2cn(C)nc12', 'IC50', '1 to 10 µM'),
  ('Cc1c(O)c(-c2ncc3c(=O)n([C@H]4CCNC(C)(C)C4)ccc3n2)cc2cn(C)nc12', 'IC50', '1 to 10 µM'),
  ('Cc1cn2cc(-c3ccc4c(=O)n([C@H]5CCN[C@@H](C)C5)ccc4n3)cc(F)c2n1', 'IC50', '1 to 10 µM'),
  ('Cc1c(O)c(-c2ncc3c(=O)n([C@@H]4C[C@H]5C[C@@H]4CN5)ccc3n2)cc2cn(C)nc12', 'IC50', '> 10 µM'),
  ('Cc1cn2cc(-c3nc(C)c4c(=O)n([C@H]5CCN[C@@H](C)C5)ccc4n3)cc(F)c2n1', 'IC50', '0.1 to 1 µM'),
  ('Cc1c(O)c(-c2ccc3c(=O)n([C@@H]4C[C@@H](C)N[C@@H](C)C4)ccc3n2)cc2cn(C)nc12', 'IC50', '1 to 10 µM'),
  ('Cn1cc2cc(-c3ccc4c(=O)n([C@@H]5CCNC6(CC6)C5)ccc4n3)c(O)cc2n1', 'IC50', '1 to 10 µM');

---

Reported values of IC50 for individual entries
# Tested on: MYB mRNA
# test-description: RT-qPCR splicing assay, MYB canonical junction (CJ) and alternative junction (AJ) mRNA
# Assay type: cell-based, human
# particulars: Homo sapiens; Table 5 panel; canonical junction qPCR; compound concentration having 50% response in CJ decrease; read-out: MYB IC50 (decrease in CJ mRNA levels)
measure: IC50

INSERT INTO assay_data (molecule, measure, recorded_value) VALUES
  ('Cc1cc(-c2cc(F)c3c(=O)n(C4CCNC5(CC5)C4)ccc3c2)cc2cn(C)nc12 (centres unmarked) [Compound 415]', 'IC50', '< 100 nM'),
  ('CN1CCN(c2ccc3c(=O)n(-c4ccc5cn(C)nc5c4)cnc3c2)CC1 [Compound 178]', 'IC50', '> 10000 nM'),
  ('Cc1cn2cc(-c3cc(F)c4c(=O)n(C5CCNCC5)ccc4c3)cc(C#N)c2n1 [Compound 383]', 'IC50', '< 100 nM'),
  ('CCc1cn(C2CCNCC2)c(=O)c2c(F)cc(-c3cc(F)c4nc(C)cn4c3)cc12 [Compound 558]', 'IC50', '100 to 1000 nM'),
  ('Cc1cn2nc(-c3ccc4c(=O)n(C5CCCNC5)ccc4c3)cc(C)c2n1 (stereo in doubt) [Compound 410]', 'IC50', '100 to 1000 nM'),
  ('Cc1cn2nc(-c3ccc4c(c3)CCN(C3CCNC3)C4=O)cc(C)c2n1 (centres unmarked) [Compound 269]', 'IC50', '> 10000 nM'),
  ('Cc1cn2cc(-c3ccc4c(c3)CCN(C3CCNCC3)C4=O)cc(C)c2n1 [Compound 217]', 'IC50', '1000 to 10000 nM'),
  ('Cc1cn2cc(-c3ccc4c(=O)n(C5CCNCC5)ncc4c3)ncc2n1 [Compound 255]', 'IC50', '1000 to 10000 nM');

---

# System: HTT mRNA
# test-description: RT-qPCR splicing assay, HTT canonical junction (CJ) and alternative junction (AJ) mRNA
# Format: cell-based, human
# particulars: Homo sapiens, decrease in HTT canonical junction (CJ) mRNA, RT-qPCR; read-out: HTT CJ IC50
Each item that follows carries a reported IC50.
measure: IC50

INSERT INTO assay_data (compound, recorded_value) VALUES
  ('Cc1c(O)c(-c2ccc3c(=O)n(C4CCNC4)cc(C)c3n2)cc2cn(C)nc12 (stereo not shown)', '> 10 µM'),
  ('Cn1cc2cc(-c3cc(F)c4c(=O)n(C5CCNCC5)cnc4c3)cc(C#N)c2n1', '0.1 to 1 µM'),
  ('CN1CCC(n2cnc3cc(-c4cc(F)c5nn(C)cc5c4)ccc3c2=O)CC1', '0.1 to 1 µM'),
  ('Cc1cn2nc(-c3ccc4c(=O)n([C@@H]5CCNC6(CCC6)C5)ncc4n3)cc(C)c2n1', '< 0.1 µM'),
  ('COc1cc2c(=O)n(C3CCNCC3)ccc2cc1-c1cc(C)c2nc(C)cn2n1', '> 10 µM'),
  ('CC[C@@H]1C[C@@H](n2ncc3cc(-c4cc(C)c5nc(C)cn5n4)ccc3c2=O)CCN1', '1 to 10 µM'),
  ('Cc1cc(-c2cc(F)c3c(=O)n(C4CCNC5(CC5)C4)ccc3c2)cc2cn(C)nc12 (stereo not shown)', '< 0.1 µM');

---

# Tested on: MYB mRNA
# test-description: RT-qPCR splicing assay, MYB canonical junction (CJ) and alternative junction (AJ) mRNA
# Format: cell-based, human
# particulars: Homo sapiens; decrease in MYB canonical junction (CJ) mRNA, RT-qPCR; read-out: MYB CJ IC50
# reported IC50; entries follow
measure: IC50

INSERT INTO assay_data (compound, assayed_system, recorded_value) VALUES
  ('Cc1cn2cc(-c3nc(C)c4c(=O)n(C5C[C@H](C)N[C@@H](C)C5)ccc4n3)cc(F)c2n1 (stereo partly shown) [Compound 1523]', 'MYB mRNA', '< 0.1 µM'),
  ('CN1CCC(n2cnc3cc(-c4cc(F)c5nn(C)cc5c4)ccc3c2=O)CC1 [Compound 209]', 'MYB mRNA', '0.1 to 1 µM'),
  ('Cc1c(O)c(-c2ncc3c(=O)n([C@@H]4C[C@H]5CC[C@@H](C4)N5)ccc3n2)cc2cn(C)nc12 [Compound 1429]', 'MYB mRNA', '< 0.1 µM'),
  ('Cc1cn2nc(-c3cc(F)c4c(=O)n(C5CCNCC5)ncc4c3)cc(C)c2n1 [Compound 540]', 'MYB mRNA', '< 0.1 µM');

---

# System: MYB mRNA
# test-description: RT-qPCR splicing assay, MYB canonical junction (CJ) and alternative junction (AJ) mRNA
# Type: cell-based, human
# particulars: Homo sapiens; decrease in MYB canonical junction (CJ) mRNA, RT-qPCR; read-out: MYB CJ IC50
Reported IC50 values for the following compounds.
measure: IC50

INSERT INTO results (compound, measure, recorded_value) VALUES
  ('Cc1cn2nc(-c3ccc4c(=O)n(C5CCNCC5)ccc4c3)cc(-n3ccccc3=O)c2n1 [Compound 552]', 'IC50', '> 10000 nM'),
  ('Cc1cc(-c2ccc3ncn(C4CCN(C)CC4)c(=O)c3c2)cc2cn(C)nc12 [Compound 2170]', 'IC50', '> 10000 nM'),
  ('Cc1cn2nc(-c3ccc4c(=O)n(C5CCN(CC6CC6)C6(CC6)C5)ncc4n3)cc(C)c2n1 (centres unmarked) [Compound 1543]', 'IC50', '100 to 1000 nM'),
  ('COc1cc2c(=O)n(C3CCNCC3)ccc2cc1-c1cc(C)c2nc(C)cn2n1 [Compound 449]', 'IC50', '> 10000 nM'),
  ('Cc1cn2nc(-c3cc(O)c4c(=O)n(C5CCNC5)ccc4c3)cc(C)c2n1 (centres unmarked) [Compound 432]', 'IC50', '100 to 1000 nM'),
  ('Cc1cn2nc(-c3ccc4c(=O)n(C5CCN(CCF)CC5)ncc4c3)cc(C)c2n1 [Compound 515]', 'IC50', '100 to 1000 nM'),
  ('Cc1cn2nc(-c3ccc4c(=O)n(C5CCNCC5)cnc4c3)cc(C)c2n1 [Compound 181]', 'IC50', '100 to 1000 nM'),
  ('Cc1c(O)c(-c2ccc3c(=O)n(C4CC(C)NC(C)C4)ccc3n2)cc2cn(C)nc12 (centres unmarked) [Compound 1447]', 'IC50', '100 to 1000 nM'),
  ('Cc1cn2cc(-c3ncc4c(=O)n([C@H]5CCNC(C)(C)C5)ccc4n3)cc(F)c2n1 [Compound 1497]', 'IC50', '100 to 1000 nM'),
  ('Cc1cc(-c2cc3ccn(C4CCNCC4)c(=O)c3cn2)cc2cn(C)nc12 [Compound 1204]', 'IC50', '100 to 1000 nM'),
  ('Cc1c(O)c(-c2ncc3c(=O)n(C4CCN(C)CC4)ccc3n2)cc2cn(C)nc12 [Compound 1304]', 'IC50', '100 to 1000 nM'),
  ('Cc1cn2cc(-c3ncc4c(=O)n([C@@H]5CCN[C@@H](C)C5)ccc4n3)cc(F)c2n1 [Compound 1498]', 'IC50', '< 100 nM'),
  ('Cc1cn2nc(-c3cc(N)c4c(=O)n([C@@H]5CCNC5)ccc4c3)cc(C)c2n1 [Compound 646]', 'IC50', '1000 to 10000 nM'),
  ('Cc1cc(-c2ccc3c(=O)[nH]c(N4CCNCC4)nc3c2)cc2cn(C)nc12 [Compound 2211]', 'IC50', '> 10000 nM'),
  ('Cc1cn2nc(-c3cc4ccn(C5CCNCC5)c(=O)c4cn3)cc(C)c2n1 [Compound 1198]', 'IC50', '100 to 1000 nM'),
  ('Cn1cc2ccc(-n3cnc4cc(NC5CCNCC5)ccc4c3=O)cc2n1 [Compound 204]', 'IC50', '> 10000 nM'),
  ('Cc1c(O)c(-c2nc(C)c3c(=O)n(C4C[C@H](C)N[C@@H](C)C4)ccc3n2)cc2cn(C)nc12 (some centres unmarked) [Compound 1516]', 'IC50', '100 to 1000 nM'),
  ('Cc1cc(-c2cc3ccn(C4CCN(C5CC5)CC4)c(=O)c3cn2)cc2cn(C)nc12 [Compound 1208]', 'IC50', '1000 to 10000 nM'),
  ('Cn1cc2c(=O)n(-c3ccc4c(=O)n(C5CCNCC5)ccc4c3)ccc2n1 [Compound 530]', 'IC50', '> 10000 nM'),
  ('Cn1cc2cc(-c3ncc4c(=O)n([C@@H]5CCNC5)ccc4n3)c(O)c(F)c2n1 [Compound 1466]', 'IC50', '100 to 1000 nM');
